molecular target: PDE5A1 (Homo sapiens)
assayReadout: IC50 (µM)

CC(C)Cn1c(=O)n(C)c(=O)c2[nH]cnc21 | 3.8
